# Species: Mus musculus
# Assay Details: Toxicity in KM mouse assessed as moderate pain producing potency for 30 mins by wiping test
# Format: organism-based
# Condition Set: in vivo, 0.5 h
Measured Quantity: Activity

Consider the reported Activity for these compounds:
{"Compound": "CCCCCCCCCC(=O)OCc1ccc(O)c(OC)c1 [VANILLYL DECANOATE]", "Activity": "Non-toxic"}
{"Compound": "COc1cc(CNC(=O)CCCC/C=C/C(C)C)ccc1O", "Activity": "0.099 mg/mL"}
{"Compound": "CCCCCCCC(=O)OCc1ccc(O)c(OC)c1 [VANILLYL CAPRYLATE]", "Activity": "Non-toxic"}
{"Compound": "CCCCCCCCCC(=O)OCc1ccc(OCC)c(OC)c1", "Activity": "Non-toxic"}
{"Compound": "CCCCCCCCCC(=O)OCc1ccc(OCCCCCC)c(OC)c1", "Activity": "Non-toxic"}

stdin: Consider the compound CCCCCCCCCCCC(=O)OCc1ccc(O)c(OC)c1 [VANILLYL LAURATE] and give its measured Activity.
stdout: Non-toxic

stdin: # Activity lookup, item CCCCCCCCCC(=O)OCc1ccc(OCCCC)c(OC)c1
stdout: Non-toxic

###

# Test system: Mus musculus
# Assay Details: Antinociceptive activity against acetic acid-induced writhing in sc dosed KM mouse for 30 mins
# Type: functional
# Condition Set: 0.5 h
Kindly apply the following: met if ED50 is less than 4 mg/kg, not met in every other case.

Here's what some known entries look like.
{"Molecule": "CCCCCCCCCC(=O)OCc1ccc(O)c(OC)c1 [VANILLYL DECANOATE]", "Label Class": "not met"}
{"Molecule": "CCCCCCCC(=O)OCc1ccc(O)c(OC)c1 [VANILLYL CAPRYLATE]", "Label Class": "not met"}
{"Molecule": "CCCCCCCCCC(=O)OCc1ccc(OCCCCCC)c(OC)c1", "Label Class": "met"}
{"Molecule": "CCCCCCCCCC(=O)OCc1ccc(OCCCC)c(OC)c1", "Label Class": "met"}

stdin: Hello, is ED50 of the following molecule strictly smaller than 4 mg/kg? CCCCCCCCCCCC(=O)OCc1ccc(O)c(OC)c1 [VANILLYL LAURATE]
stdout: not met

###

# Organism: Mus musculus
# Assay Details: Toxicity in KM mouse assessed as number of protective movements for 30 mins by wiping test
# Format: organism-based
# Condition Set: in vivo, 0.5 h
Decide by Activity: equal to or exceeding 10 means true, less means false.

Use these answered entries as a reference point.
{"Compound": "CCCCCCCCCC(=O)OCc1ccc(O)c(OC)c1 [VANILLYL DECANOATE]", "Label Class": "true"}
{"Compound": "CCCCCCCC(=O)OCc1ccc(O)c(OC)c1 [VANILLYL CAPRYLATE]", "Label Class": "true"}
{"Compound": "CCCCCCCCCC(=O)OCc1ccc(OCC)c(OC)c1", "Label Class": "false"}
{"Compound": "CCCCCCCCCC(=O)OCc1ccc(OCCCCCC)c(OC)c1", "Label Class": "true"}
{"Compound": "CCCCCCCCCCCC(=O)OCc1ccc(O)c(OC)c1 [VANILLYL LAURATE]", "Label Class": "true"}

Now for a further compound.
stdin: Given the entry CCCCCCCCCC(=O)OCc1ccc(OCCCC)c(OC)c1 , answer whether its Activity meets or surpasses 10.
stdout: false
